B1: FAM50A (parent)
chain: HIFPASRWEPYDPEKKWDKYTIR

variants of: B1; assay: protein stability index of a GFP-peptide fusion (GPS, HEK-293T) (PSI 1-6); higher = more stable; conditions: c terminus: native;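 note: lentivirally expressed fusions sorted by FACS into six bins by GFP to DsRed ratio, PSI derived from sequencing read proportions per bin multiplied by bin number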
measured_parameter: protein stability index

- mutant: "K16G"
  measured_parameter: "protein stability index"
  quantitative_readout: 1.77
- mutant: "K19E"
  measured_parameter: "protein stability index"
  quantitative_readout: 2.53
- mutant: "F3M"
  measured_parameter: "protein stability index"
  quantitative_readout: 1.74
- mutant: "I2Q"
  measured_parameter: "protein stability index"
  quantitative_readout: 3.11
- mutant: "E14K"
  measured_parameter: "protein stability index"
  quantitative_readout: 2.27
- mutant: "A5C"
  measured_parameter: "protein stability index"
  quantitative_readout: 1.73
- mutant: "D18E"
  measured_parameter: "protein stability index"
  quantitative_readout: 3.2
- mutant: "Y20G"
  measured_parameter: "protein stability index"
  quantitative_readout: 2.16
- mutant: "K19V"
  measured_parameter: "protein stability index"
  quantitative_readout: 1.31
- mutant: "Y11E"
  measured_parameter: "protein stability index"
  quantitative_readout: 2.37
- mutant: "P10Q"
  measured_parameter: "protein stability index"
  quantitative_readout: 2.12
- mutant: "W8M"
  measured_parameter: "protein stability index"
  quantitative_readout: 3.42
- mutant: "E9Y"
  measured_parameter: "protein stability index"
  quantitative_readout: 1.51
- mutant: "W8H"
  measured_parameter: "protein stability index"
  quantitative_readout: 3.46
- mutant: "E14Q"
  measured_parameter: "protein stability index"
  quantitative_readout: 2.04
- mutant: "K15L"
  measured_parameter: "protein stability index"
  quantitative_readout: 1.57
- mutant: "E9Q"
  measured_parameter: "protein stability index"
  quantitative_readout: 2.2
- mutant: "A5L"
  measured_parameter: "protein stability index"
  quantitative_readout: 1.58
- mutant: "R7N"
  measured_parameter: "protein stability index"
  quantitative_readout: 2.38
- mutant: "E9S"
  measured_parameter: "protein stability index"
  quantitative_readout: 2.76
- mutant: "E14M"
  measured_parameter: "protein stability index"
  quantitative_readout: 2.38
- mutant: "F3L"
  measured_parameter: "protein stability index"
  quantitative_readout: 2.63
